- TARGET OR SYSTEM: P-selectin (Homo sapiens, UniProt P16109)
- Construct: P-selectin is isolated from human platelet lysates
- Sequence (P16109 42-830): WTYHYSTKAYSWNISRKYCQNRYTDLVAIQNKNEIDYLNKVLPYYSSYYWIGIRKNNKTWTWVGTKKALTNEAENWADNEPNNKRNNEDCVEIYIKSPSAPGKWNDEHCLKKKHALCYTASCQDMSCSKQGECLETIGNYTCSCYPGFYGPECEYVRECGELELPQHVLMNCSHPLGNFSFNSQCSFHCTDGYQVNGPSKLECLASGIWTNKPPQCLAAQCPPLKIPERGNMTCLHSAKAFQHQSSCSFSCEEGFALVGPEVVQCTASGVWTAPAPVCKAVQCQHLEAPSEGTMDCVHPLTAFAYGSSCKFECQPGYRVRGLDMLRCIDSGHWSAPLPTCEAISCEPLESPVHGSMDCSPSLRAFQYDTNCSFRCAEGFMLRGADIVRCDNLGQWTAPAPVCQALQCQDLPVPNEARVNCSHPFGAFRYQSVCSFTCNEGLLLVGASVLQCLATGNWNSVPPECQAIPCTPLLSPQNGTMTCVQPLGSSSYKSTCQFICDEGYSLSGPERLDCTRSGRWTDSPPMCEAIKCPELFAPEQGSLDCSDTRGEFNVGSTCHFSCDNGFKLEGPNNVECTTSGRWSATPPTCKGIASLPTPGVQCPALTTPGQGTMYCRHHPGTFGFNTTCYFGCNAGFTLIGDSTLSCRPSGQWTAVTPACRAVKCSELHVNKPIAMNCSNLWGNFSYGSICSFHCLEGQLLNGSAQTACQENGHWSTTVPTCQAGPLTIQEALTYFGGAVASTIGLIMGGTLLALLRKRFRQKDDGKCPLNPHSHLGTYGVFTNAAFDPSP
- TEST DESCRIPTION: Inhibition of human neutrophil adhesion to purified P-selectin immobilized on plastic wells
- SETTINGS: inhibiting the binding of human neutrophils to P-selectin
Where a SMILES comes first, the peptide text is derived from it. Bridges are numbered along the chain shown (N, C = ends). [ ]: non-standard residue; d: D form.
MEASURED PROPERTY: IC50 (µM)
One number for each entry, in µM.

In the examples that follow, each entry is paired with its recorded IC50.
{"MOLECULE": "CC(C)[C@@H](NC(=O)[C@@H](Cc1c[nH]c2ccccc12)NC(=O)[C@H](NC(=O)[C@H]1CCCN1C(=O)[C@H]1CSSC[C@@H](NC(=O)[C@@H](CCCCN)NC(=O)[C@H](N)CCCNC(=N)N)C(=O)NCC(=O)N[C@@H](Cc2ccccc2)C(=O)N1)[C@H](C)O)C(N)=O [(76)] (H-[dR][dK][dC]GF[dC][dP][dT][dW][dV]-NH2; disulfide 3-6)", "UNIT SPEC": "µM", "VALUE MEASURED": 105}
{"MOLECULE": "CC(C)[C@@H](NC(=O)[C@@H](Cc1c[nH]c2ccccc12)NC(=O)[C@H](NC(=O)[C@@H](Cc1c[nH]c2ccccc12)NC(=O)[C@H]1CSSC[C@@H](NC(=O)[C@@H](CCCCN)NC(=O)[C@H](N)CCCNC(=N)N)C(=O)NCC(=O)N[C@@H](Cc2ccc(O)cc2)C(=O)N1)[C@H](C)O)C(N)=O [(87)] (H-[dR][dK][dC]GY[dC][dW][dT][dW][dV]-NH2; disulfide 3-6)", "UNIT SPEC": "µM", "VALUE MEASURED": 5.7}
{"MOLECULE": "CC(C)C[C@H]1NC(=O)CNC(=O)[C@H](NC(=O)[C@@H](CCCCN)NC(=O)[C@H](N)CCCNC(=N)N)CSSC[C@H](C(=O)N[C@H](Cc2c[nH]c3ccccc23)C(=O)N[C@@H](C(=O)N[C@H](Cc2c[nH]c3ccccc23)C(=O)N[C@@H](C(N)=O)C(C)C)[C@H](C)O)NC1=O [(53)] (H-[dR][dK][dC]G[dL][dC][dW][dT][dW][dV]-NH2; disulfide 3-6)", "UNIT SPEC": "µM", "VALUE MEASURED": 18.7}

Report IC50 for each item below.
1. CC(C)[C@@H](NC(=O)[C@@H](Cc1c[nH]c2ccccc12)NC(=O)[C@H](NC(=O)[C@@H](Cc1c[nH]c2ccccc12)NC(=O)[C@H]1CSSC[C@@H](NC(=O)[C@@H](CCCCN)NC(=O)[C@H](N)CCCNC(=N)N)C(=O)N[C@@H](CCCCN)C(=O)N[C@@H](Cc2ccccc2)C(=O)N1)[C@H](C)O)C(N)=O [(70)] (H-[dR][dK][dC]KF[dC][dW][dT][dW][dV]-NH2; disulfide 3-6)
2. CC[C@H](C)[C@@H]1NC(=O)[C@H](NC(=O)[C@@H](CCCCN)NC(=O)[C@H](N)CCCNC(=N)N)CSSC[C@H](C(=O)N[C@H](Cc2c[nH]c3ccccc23)C(=O)N[C@@H](C(=O)N[C@H](Cc2c[nH]c3ccccc23)C(=O)N[C@@H](C(N)=O)C(C)C)[C@H](C)O)NC(=O)[C@@H]2CCCN2C1=O [(95)] (H-[dR][dK][dC]IP[dC][dW][dT][dW][dV]-NH2; disulfide 3-6)
3. CC(C)[C@@H](NC(=O)[C@@H](Cc1c[nH]c2ccccc12)NC(=O)[C@@H](NC(=O)[C@@H](Cc1c[nH]c2ccccc12)NC(=O)[C@H]1CSSC[C@@H](NC(=O)[C@@H](CCCCN)NC(=O)[C@H](N)CCCNC(=N)N)C(=O)NCC(=O)N[C@@H](Cc2ccccc2)C(=O)N1)[C@@H](C)O)C(N)=O [(98)] (H-[dR][dK][dC]GF[dC][dW]T[dW][dV]-NH2; disulfide 3-6)
4. CC(C)[C@@H](NC(=O)[C@@H](Cc1c[nH]c2ccccc12)NC(=O)[C@H](NC(=O)[C@@H](Cc1c[nH]c2ccccc12)NC(=O)[C@H]1CSSC[C@@H](NC(=O)[C@@H](CCCCN)NC(=O)[C@H](N)CCCNC(=N)N)C(=O)N[C@H](CCCNC(=N)N)C(=O)N[C@@H](Cc2ccccc2)C(=O)N1)[C@H](C)O)C(N)=O [(45)] (H-[dR][dK][dC][dR]F[dC][dW][dT][dW][dV]-NH2; disulfide 3-6)

1: 85.9; 2: 26.8; 3: 28.7; 4: 263
